All values here come from ChEMBL document CHEMBL3046559.

Assign Survival to each entry below.
- System: Avena sterilis
- assay_explanation: Herbicidal activity against Avena sterilis accession P16 assessed as weed survival at 8 times field recommended herbicide dose
- Type: functional
Give bare numbers, in %.

In the examples that follow, each entry is paired with its recorded Survival.
compound | experimental_target | Survival [%]
CCc1cc(C)cc(CC)c1-c1c(OC(=O)C(C)(C)C)n2n(c1=O)CCOCC2 | Avena sterilis | 0
CCO/N=C(\CC)C1=C(O)CC(c2c(C)cc(C)cc2C)CC1=O (stereo unspecified) | Avena sterilis | 17
CCOC(=O)[C@@H](C)Oc1ccc(Oc2nc3ccc(Cl)cc3o2)cc1 | Avena sterilis | 20
C#CCOC(=O)[C@@H](C)Oc1ccc(Oc2ncc(Cl)cc2F)cc1 | Avena sterilis | 20

For every item below, please supply its Survival.
1. COCc1cnc(C2=NC(C)(C(C)C)C(=O)N2)c(C(=O)O)c1 (stereo unspecified)
2. COC(=O)C(C)Oc1ccc(Oc2ccc(Cl)cc2Cl)cc1 (stereo unspecified)

result:
1: 0; 2: 53

---

- Tested on: Avena sterilis
- assay_explanation: Herbicidal activity against Avena sterilis accession P22 assessed as weed survival at 4 times field recommended herbicide dose
- Assay type: functional
Could you please report measured Survival for the items listed next?
Give bare numbers, in %.

Study these solved cases before continuing.
molecule | experimental_target | unit_tag | Survival
CCOC(=O)[C@@H](C)Oc1ccc(Oc2nc3ccc(Cl)cc3o2)cc1 [FENOXAPROP-P-ETHYL] | Avena sterilis | % | 40
COC(=O)C(C)Oc1ccc(Oc2ccc(Cl)cc2Cl)cc1 (stereo unspecified) [DICLOFOP-METHYL] | Avena sterilis | % | 63

Could you report Survival for every entry in the following list?
1. C#CCOC(=O)[C@@H](C)Oc1ccc(Oc2ncc(Cl)cc2F)cc1 [CLODINAFOP PROPARGYL]
2. CCc1cc(C)cc(CC)c1-c1c(OC(=O)C(C)(C)C)n2n(c1=O)CCOCC2 [PINOXADEN]
3. CCO/N=C(\CC)C1=C(O)CC(c2c(C)cc(C)cc2C)CC1=O (stereo unspecified) [TRALKOXYDIM]
4. COCc1cnc(C2=NC(C)(C(C)C)C(=O)N2)c(C(=O)O)c1 (stereo unspecified) [IMAZAMOX]

result:
43
0
40
0

---

- System: Avena sterilis
- assay_explanation: Herbicidal activity against Avena sterilis accession P20 assessed as weed survival at 32 times field recommended herbicide dose
- Assay type: functional
measurement_label: Survival (%)
Numbers only, in %.

molecule | Survival, %
CCO/N=C(\CC)C1=C(O)CC(c2c(C)cc(C)cc2C)CC1=O (stereo unspecified) | 20
COCc1cnc(C2=NC(C)(C(C)C)C(=O)N2)c(C(=O)O)c1 (stereo unspecified) | 0
C#CCOC(=O)[C@@H](C)Oc1ccc(Oc2ncc(Cl)cc2F)cc1 | 27
CCc1cc(C)cc(CC)c1-c1c(OC(=O)C(C)(C)C)n2n(c1=O)CCOCC2 | 0
CCOC(=O)[C@@H](C)Oc1ccc(Oc2nc3ccc(Cl)cc3o2)cc1 | 53

Shifting focus to the molecule that follows.
query: Using the record for COC(=O)C(C)Oc1ccc(Oc2ccc(Cl)cc2Cl)cc1 (stereo unspecified) , report its Survival.
result: 70

---

- Tested on: Avena sterilis
- assay_explanation: Resistance index, ratio of GR50 for Avena sterilis accession P17 to GR50 for Avena sterilis accession P10S
- Type: functional
Give Ratio for every item shown.
Answers are plain numbers.

molecule | Ratio
COC(=O)C(C)Oc1ccc(Oc2ccc(Cl)cc2Cl)cc1 (centres undefined) | 17

Record Ratio for all entries; do not skip any.
1. CCOC(=O)[C@@H](C)Oc1ccc(Oc2nc3ccc(Cl)cc3o2)cc1
2. C#CCOC(=O)[C@@H](C)Oc1ccc(Oc2ncc(Cl)cc2F)cc1
3. CCO/N=C(\CC)C1=C(O)CC(c2c(C)cc(C)cc2C)CC1=O (centres undefined)

result:
1: 19; 2: 35; 3: 14

---

- System: Avena sterilis
- assay_explanation: Herbicidal activity against Avena sterilis accession P17 assessed as weed survival at 16 times field recommended herbicide dose
- Format: functional
I'd be grateful if you could share measured Survival for these entries.
Answers are plain numbers, in %.

Here's what some known entries look like.
compound | Survival, %
CCOC(=O)[C@@H](C)Oc1ccc(Oc2nc3ccc(Cl)cc3o2)cc1 [FENOXAPROP-P-ETHYL] | 20
CCc1cc(C)cc(CC)c1-c1c(OC(=O)C(C)(C)C)n2n(c1=O)CCOCC2 [PINOXADEN] | 0
COCc1cnc(C2=NC(C)(C(C)C)C(=O)N2)c(C(=O)O)c1 (stereo unspecified) [IMAZAMOX] | 0
COC(=O)C(C)Oc1ccc(Oc2ccc(Cl)cc2Cl)cc1 (stereo unspecified) [DICLOFOP-METHYL] | 43
CCO/N=C(\CC)C1=C(O)CC(c2c(C)cc(C)cc2C)CC1=O (stereo unspecified) [TRALKOXYDIM] | 0

Let's switch to this compound now.
query: GET /values?readout=Survival&system=Avena sterilis&item= C#CCOC(=O)[C@@H](C)Oc1ccc(Oc2ncc(Cl)cc2F)cc1 [CLODINAFOP PROPARGYL]
result: 27

---

- Test system: Avena sterilis
- assay_explanation: Herbicidal activity against Avena sterilis accession P18 assessed as induction of weed mortality
- Assay type: functional
measurement_label: GR50

Illustrative cases are given below, each with its answer.
compound | observed
COCc1cnc(C2=NC(C)(C(C)C)C(=O)N2)c(C(=O)O)c1 (stereo unspecified) | <50 gAi/ha
CCO/N=C(\CC)C1=C(O)CC(c2c(C)cc(C)cc2C)CC1=O (stereo unspecified) | <400 gAi/ha
CCOC(=O)[C@@H](C)Oc1ccc(Oc2nc3ccc(Cl)cc3o2)cc1 | >2640 gAi/ha

Provide GR50 for all items below, preserving their order.
1. C#CCOC(=O)[C@@H](C)Oc1ccc(Oc2ncc(Cl)cc2F)cc1
2. COC(=O)C(C)Oc1ccc(Oc2ccc(Cl)cc2Cl)cc1 (stereo unspecified)
3. CCc1cc(C)cc(CC)c1-c1c(OC(=O)C(C)(C)C)n2n(c1=O)CCOCC2

result:
1. 520 gAi/ha
2. 10199 gAi/ha
3. <40 gAi/ha

---

- Test system: Avena sterilis
- assay_explanation: Resistance index, ratio of GR50 for Avena sterilis accession P03 to GR50 for Avena sterilis accession P10S
- Format: functional
measurement_label: Ratio
Numbers only.

Solved cases (2 shown):
molecule | experimental_target | Ratio
COC(=O)C(C)Oc1ccc(Oc2ccc(Cl)cc2Cl)cc1 (centres undefined) | Avena sterilis | 26
CCO/N=C(\CC)C1=C(O)CC(c2c(C)cc(C)cc2C)CC1=O (centres undefined) | Avena sterilis | 55

Let us move to another entry and its Ratio.
query: What value of measured Ratio is listed for CCOC(=O)[C@@H](C)Oc1ccc(Oc2nc3ccc(Cl)cc3o2)cc1 ?
result: 55

---

- System: Avena sterilis
- assay_explanation: Herbicidal activity against Avena sterilis accession P14 assessed as weed survival at 4 times field recommended herbicide dose
- Type: functional
Provide the recorded Survival for the entries that follow.

compound | observed
CCc1cc(C)cc(CC)c1-c1c(OC(=O)C(C)(C)C)n2n(c1=O)CCOCC2 | 0%
CCOC(=O)[C@@H](C)Oc1ccc(Oc2nc3ccc(Cl)cc3o2)cc1 | 43%
COCc1cnc(C2=NC(C)(C(C)C)C(=O)N2)c(C(=O)O)c1 (stereo unspecified) | 0%
CCO/N=C(\CC)C1=C(O)CC(c2c(C)cc(C)cc2C)CC1=O (stereo unspecified) | 0%
C#CCOC(=O)[C@@H](C)Oc1ccc(Oc2ncc(Cl)cc2F)cc1 | 87%

# evaluate next
query: Consider the compound COC(=O)C(C)Oc1ccc(Oc2ccc(Cl)cc2Cl)cc1 (stereo unspecified) and give its measured Survival.
result: 77%

---

- Test system: Avena sterilis
- assay_explanation: Herbicidal activity against Avena sterilis accession P15 assessed as induction of weed mortality
- Type: functional
measurement_label: GR50

Consider the worked cases shown below.
compound | experimental_target | measurement_label | observed
CCc1cc(C)cc(CC)c1-c1c(OC(=O)C(C)(C)C)n2n(c1=O)CCOCC2 | Avena sterilis | GR50 | <40 gAi/ha
C#CCOC(=O)[C@@H](C)Oc1ccc(Oc2ncc(Cl)cc2F)cc1 | Avena sterilis | GR50 | >1312 gAi/ha
COC(=O)C(C)Oc1ccc(Oc2ccc(Cl)cc2Cl)cc1 (stereo unspecified) | Avena sterilis | GR50 | >22740 gAi/ha
CCOC(=O)[C@@H](C)Oc1ccc(Oc2nc3ccc(Cl)cc3o2)cc1 | Avena sterilis | GR50 | 1440 gAi/ha
CCO/N=C(\CC)C1=C(O)CC(c2c(C)cc(C)cc2C)CC1=O (stereo unspecified) | Avena sterilis | GR50 | 735 gAi/ha

Could you now look at the following compound, please?
query: Consider the compound COCc1cnc(C2=NC(C)(C(C)C)C(=O)N2)c(C(=O)O)c1 (stereo unspecified) and give its measured GR50.
result: <50 gAi/ha
